Exercise: for every item that follows, state its recorded pIC50.
molecular target: IL-17A/F (Homo sapiens, UniProt Q16552+Q96PD4); assay: IL-17A/F HEK-Blue cell assay (SEAP reporter); conditions: HEK-Blue IL-17A reporter cells, IL17A/F 5 ng/mL, 20 hours, SEAP read at A630; read-out: HEK-Blue IL17AF (IC50 for IL-17A/F inhibition)
Sequence (Q16552 24-155): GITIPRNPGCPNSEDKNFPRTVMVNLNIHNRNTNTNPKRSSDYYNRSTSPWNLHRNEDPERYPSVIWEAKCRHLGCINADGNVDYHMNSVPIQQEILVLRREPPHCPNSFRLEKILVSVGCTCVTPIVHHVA
Sequence (Q96PD4 31-163): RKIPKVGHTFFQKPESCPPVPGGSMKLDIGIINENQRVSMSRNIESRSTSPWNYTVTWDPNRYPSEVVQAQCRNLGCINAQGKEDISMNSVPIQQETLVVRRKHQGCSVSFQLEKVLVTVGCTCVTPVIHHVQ
pIC50: −log10 of the molar value.

Query :: For the molecule shown here, `O=C(N[C@H](c1cn2nc(C[C@H]3C[C@@H](C(F)(F)F)CNC3=O)c(C3CCOCC3)nc2n1)C1CCC(F)(F)CC1)c1ccnn1C(F)F` , give the reported pIC50.
Result :: 6.00 to 7.00

Query :: For the molecule shown here, `CCn1nccc1C(=O)N[C@H](c1cn2nc(C[C@H]3C[C@@H](C(F)(F)F)CNC3=O)c(CN3CC(C(F)(F)F)C3)nc2n1)C1CCC(F)(F)CC1` , give the reported pIC50.
Result :: 6.00 to 7.00

Query :: For the molecule shown here, `O=C(N[C@H](c1cn2nc(C[C@H]3C[C@@H](C(F)(F)F)CNC3=O)c(C3CCOCC3)nc2n1)C1CCC(F)(F)CC1)c1ccnn1C(F)(F)F` , give the reported pIC50.
Result :: < 6.00

Query :: For the molecule shown here, CCn1nccc1C(=O)N[C@H](c1cn2nc(C[C@H]3C[C@@H](C(F)(F)F)CNC3=O)c(C3Cc4cncnc4C3)nc2n1)C1CCC(F)(F)CC1 (single isomer, unassigned) [Compound 402] , give the reported pIC50.
Result :: 6.00 to 7.00

Query :: For the molecule shown here, O=C(N[C@H](c1cn2nc(CC3C[C@@H](C(F)(F)F)CNC3=O)c(N3CCOCC3)nc2n1)C1CCC(F)(F)CC1)c1nonc1C1CC1 (single isomer, unassigned) [Compound 20] , give the reported pIC50.
Result :: < 6.00

Query :: For the molecule shown here, CC(C)n1nccc1C(=O)N[C@H](c1cn2nc(C[C@H]3C[C@@H](C(F)(F)F)CNC3=O)c(C3CCOC3)nc2n1)C1CCC(F)(F)CC1 (single isomer, unassigned) [Compound 133] , give the reported pIC50.
Result :: 6.00 to 7.00

Query :: For the molecule shown here, CC(C)n1nccc1C(=O)N[C@H](c1cn2nc(CC3C[C@@H](C(F)(F)F)CNC3=O)c(N3CC4CC(C3)O4)nc2n1)[C@@H]1CCCC(F)(F)C1 (single isomer, unassigned) [Compound 131] , give the reported pIC50.
Result :: < 6.00

Query :: For the molecule shown here, CCn1nccc1C(=O)N[C@H](c1cn2nc(C[C@H]3C[C@@H](C(F)(F)F)CNC3=O)c(C3CCCOC3)nc2n1)[C@H]1CCCC(F)(F)C1 (single isomer, unassigned) [Compound 68] , give the reported pIC50.
Result :: > 7.00

Query :: For the molecule shown here, `Cn1nccc1C(=O)N[C@H](c1cn2nc(C[C@H]3C[C@@H](C(F)(F)F)CNC3=O)c(C3CCOCC3)nc2n1)[C@H]1CC[C@H](C)CC1` , give the reported pIC50.
Result :: > 7.00

Query :: For the molecule shown here, `CC(C)c1nc2nc([C@@H](NC(=O)c3ccnn3C)C3CCC(F)(F)CC3)cn2nc1C[C@H]1C[C@@H](C(F)(F)F)CNC1=O` , give the reported pIC50.
Result :: 6.00 to 7.00

Query :: For the molecule shown here, `CCn1nccc1C(=O)N[C@H](c1cn2nc(C[C@H]3C[C@H](C(F)(F)F)CNC3=O)c(C3CCOCC3)nc2n1)[C@H]1CC[C@H](C)CC1` , give the reported pIC50.
Result :: 6.00 to 7.00

###

Exercise: for every item that follows, state its recorded pIC50.
molecular target: IL-17A/A (Homo sapiens); assay: IL-17A/A HEK-Blue cell assay (SEAP reporter); conditions: HEK-Blue IL-17A reporter cells, IL17A/A 5 ng/mL, 20 hours, SEAP read at A630; read-out: HEK-Blue IL17AA (IC50 for IL-17A/A inhibition)
pIC50: −log10 of the molar value.

Query :: For the molecule shown here, O=C(N[C@H](c1cn2nc(C[C@H]3C[C@@H](C(F)(F)F)CNC3=O)c(C3CCOCC3)nc2n1)C1CCC(F)(F)CC1)c1ccnn1CC(F)F [Compound 187] , give the reported pIC50.
Result :: > 7.00

Query :: For the molecule shown here, CCn1nccc1C(=O)N[C@H](c1cn2nc(C[C@H]3C[C@H](C)CNC3=O)c(C(C)C)nc2n1)C1CCC(F)(F)CC1 [Compound 391] , give the reported pIC50.
Result :: > 7.00

Query :: For the molecule shown here, CCn1nccc1C(=O)N[C@H](c1cn2nc(C[C@H]3C[C@@H](C(F)(F)F)CNC3=O)c(CN3CC4CC(C3)C4(F)F)nc2n1)C1CCC(F)(F)CC1 [Compound 348] , give the reported pIC50.
Result :: > 7.00

Query :: For the molecule shown here, CCn1nccc1C(=O)N[C@H](c1cn2nc(C[C@H]3C[C@@H](C(F)(F)F)CNC3=O)c(N(C)C3COC3)nc2n1)C1CCC(F)(F)CC1 [Compound 180] , give the reported pIC50.
Result :: 6.00 to 7.00

Query :: For the molecule shown here, CCn1nccc1C(=O)N[C@H](c1cn2nc(C[C@H]3C[C@@H](C(F)(F)F)CNC3=O)c(N3CCO[C@H](C)C3)nc2n1)[C@H]1CCCC(F)(F)C1 [Compound 121] , give the reported pIC50.
Result :: > 7.00

Query :: For the molecule shown here, CCn1nccc1C(=O)N[C@H](c1cn2nc(C[C@H]3C[C@@H](C(F)(F)F)CNC3=O)c(N3CCOCC3)nc2n1)C1CCCCC1 [Compound 326] , give the reported pIC50.
Result :: > 7.00

Query :: For the molecule shown here, CCn1nccc1C(=O)N[C@H](c1cn2nc(C[C@H]3C[C@@H](C(F)(F)F)CNC3=O)c(CC3CCOC3)nc2n1)C1CCC(F)(F)CC1 (some centres unmarked) [Compound 170] , give the reported pIC50.
Result :: > 7.00

Query :: For the molecule shown here, Cc1nonc1C(=O)N[C@H](c1cn2nc(C[C@H]3C[C@@H](C(F)(F)F)CNC3=O)c([C@H]3CCOC3)nc2n1)C1CCC(F)(F)CC1 (single isomer, unassigned) [Compound 274] , give the reported pIC50.
Result :: > 7.00

Query :: For the molecule shown here, CCn1nccc1C(=O)N[C@H](c1cn2nc(C[C@H]3C[C@@H](C(F)(F)F)CNC3=O)c(CN3CCN(CC(F)(F)F)C(=O)C3)nc2n1)C1CCC(F)(F)CC1 [Compound 352] , give the reported pIC50.
Result :: 6.00 to 7.00

Query :: For the molecule shown here, CCn1nccc1C(=O)N[C@H](c1cn2nc(CC3C[C@@H](C(F)(F)F)CNC3=O)c(N3CCOCC3)nc2n1)[C@H]1CC[C@H](C)CC1 (single isomer, unassigned) [Compound 23] , give the reported pIC50.
Result :: > 7.00

Query :: For the molecule shown here, CCn1nccc1C(=O)N[C@H](c1cn2nc(C[C@H]3C[C@@H](C(F)(F)F)CNC3=O)c(N3CCN4CCC[C@@H]4C3)nc2n1)C1CCC(F)(F)CC1 [Compound 368] , give the reported pIC50.
Result :: > 7.00

###

target: IL-17A/A (Homo sapiens, UniProt Q16552); assay: IL-17A/A HEK-Blue cell assay (SEAP reporter); conditions: HEK-Blue IL-17A reporter cells, IL17A/A 5 ng/mL, 20 hours, SEAP read at A630; read-out: HEK-Blue IL17AA (IC50 for IL-17A/A inhibition)
pIC50: −log10 of the molar value.
Exercise: for every item that follows, state its recorded pIC50.

Query :: For the compound shown here, Cc1nonc1C(=O)N[C@H](c1cn2nc(C[C@@H]3C[C@H](C)CNC3=O)c(C3CCOCC3)nc2n1)C1CCC(F)(F)CC1 [Compound 399] , give the reported pIC50.
Result :: > 7.00

Query :: For the compound shown here, CCn1ncnc1C(=O)N[C@H](c1cn2nc(C[C@@H]3C[C@H](C)CNC3=O)c(C3CCOCC3)nc2n1)C1CCC(F)(F)CC1 [Compound 388] , give the reported pIC50.
Result :: > 7.00

Query :: For the compound shown here, Cn1nccc1C(=O)N[C@H](c1cn2nc(C[C@H]3C[C@@H](C(F)(F)F)CNC3=O)c([C@H]3CCCOC3)nc2n1)[C@H]1CCCC(F)(F)C1 (single isomer, unassigned) [Compound 267] , give the reported pIC50.
Result :: > 7.00

Query :: For the compound shown here, CC(C)n1nccc1C(=O)N[C@H](c1cn2nc(CC3C[C@@H](C(F)(F)F)CNC3=O)c(N3CC4CC(C3)O4)nc2n1)[C@H]1CCCC(F)(F)C1 (single isomer, unassigned) [Compound 130] , give the reported pIC50.
Result :: > 7.00

Query :: For the compound shown here, CC(C)c1nocc1C(=O)N[C@H](c1cn2nc(CC3C[C@@H](C(F)(F)F)CNC3=O)cnc2n1)C1CCC(F)(F)CC1 (some centres unmarked) [Compound 8] , give the reported pIC50.
Result :: 6.00 to 7.00

Query :: For the compound shown here, O=C(N[C@H](c1cn2nc(C[C@H]3C[C@@H](C(F)(F)F)CNC3=O)c(C3CCCOC3)nc2n1)[C@H]1CCCC(F)(F)C1)c1nonc1C1CC1 (single isomer, unassigned) [Compound 126] , give the reported pIC50.
Result :: > 7.00

Query :: For the compound shown here, CCn1nccc1C(=O)N[C@H](c1cn2nc(CC3C[C@@H](C(F)(F)F)CNC3=O)c(N3CC4CCC(C3)O4)nc2n1)[C@H]1CC[C@H](C)CC1 (single isomer, unassigned) [Compound 104] , give the reported pIC50.
Result :: > 7.00

Query :: For the compound shown here, CCn1nccc1C(=O)N[C@H](c1cn2nc(C[C@H]3C[C@@H](C(F)(F)F)CNC3=O)c(N3CCO[C@@H](C)C3)nc2n1)[C@H]1CCCC(F)(F)C1 [Compound 123] , give the reported pIC50.
Result :: > 7.00

Query :: For the compound shown here, CCn1nccc1C(=O)N[C@H](c1cn2nc(C[C@H]3C[C@@H](C(F)(F)F)CNC3=O)c(CC3CCCOC3)nc2n1)C1CCC(F)(F)CC1 (some centres unmarked) [Compound 213] , give the reported pIC50.
Result :: > 7.00

Query :: For the compound shown here, CCn1nccc1C(=O)N[C@H](c1cn2nc(C[C@H]3C[C@@H](C(F)(F)F)CNC3=O)c([C@@H]3CCCCN3)nc2n1)C1CCC(F)(F)CC1 (single isomer, unassigned) [Compound 324] , give the reported pIC50.
Result :: 6.00 to 7.00

Query :: For the compound shown here, Cc1nonc1C(=O)N[C@H](c1cn2nc(C[C@H]3C[C@@H](C(F)(F)F)CNC3=O)c(C3CCCOC3)nc2n1)C1CCC(F)(F)CC1 (single isomer, unassigned) [Compound 265] , give the reported pIC50.
Result :: > 7.00
